Give measured GI50 for each item. Keep answers brief.
TEST: Antiproliferative activity against mouse ASZ cells assessed as reduction in cell viability after 72 hrs by MTS/PMS assay
Format: functional

Illustrative cases are given below, each with its answer.
1. O=C1CC/C=C/CC(c2ccc(-c3ccccc3)cc2)C(=O)OCCCO1 (stereo not drawn); ≥ 100 µM
2. Cc1noc(C)c1-c1ccc(C2C/C=C/CCC(=O)OCCCOC2=O)cc1 (stereo not drawn); ≥ 75 µM
3. CN(C)c1cccc(-c2ccc(C3C/C=C/CCC(=O)OCCCOC3=O)cc2)c1 (stereo not drawn); ≥ 75 µM

Give GI50 for each of the items listed below.
1. O=C1CC/C=C/CC(c2ccc(-c3ccncc3)cc2)C(=O)OCCCO1 (stereo not drawn)
2. COc1cc(-c2ccc(C3C/C=C/CCC(=O)OCCCOC3=O)cc2)c(OC)nn1 (stereo not drawn)
3. O=C1CC/C=C/CC(c2ccc(-c3cccc(O)c3)cc2)C(=O)OCCCO1 (stereo not drawn)
4. O=C1CC/C=C/CC(c2ccc(-c3cnn(Cc4ccccc4)c3)cc2)C(=O)OCCCO1 (stereo not drawn)

["≥ 75 µM", "19.7 µM", "12.1 µM", "≥ 100 µM"]

I am curious: what GI50 value has been reported for O=C1CC/C=C/CC(c2ccc(-c3cccnc3)cc2)C(=O)OCCCO1 (stereo not drawn) ?
40.9 µM
